- Read-out: Intercellular Adhesion Molecule 1 (ICAM1), ICAM1 (gene 3383)
- run-description: BSK_KF3CT_ICAM1: BioMAP Diversity Plus: KF3CT Assay for Intercellular Adhesion Molecule 1 (ICAM1) Biomarker Activity (AID 2283067)
- condition-set: primary human keratinocytes with fibroblasts; actives raise or lower the signal
Active and inactive are the calls of the source. The calls were made as follows: active = hit-call score of the fitted dose curve at least 0.9, where 1 is the maximum; inactive = score below 0.9.
Allowed answers: TRUE = active, FALSE = inactive

CCOc1ccc(C(C)(C)COCc2cccc(Oc3ccccc3)c2)cc1 = FALSE

What call does the record list for Nc1ccc(Cl)cc1 ?
FALSE

Per the records of this test, what outcome belongs to Nc1cc2c3c(c1)C(c1ccccc1)=N[C@@H](NC(=O)c1cccnc1)C(=O)N3CC2 ?
FALSE

Outcome logged for CC(Cl)(Cl)C(=O)O in this assay:
FALSE

Any idea what this test logged for O=P(Oc1ccccc1)(Oc1ccccc1)Oc1ccccc1 ?
FALSE

* * *

- run-description: CEETOX_H295R_ESTRONE: CeeTox H295R High-throughput Steroidogenesis Assay for Estrone (AID 2283441);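 also: estrone secreted into medium measured by LC-MS/MS after dansyl derivatization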
- condition-set: actives raise or lower the signal
Activity calls are given as the source filed them. How the source made its calls: active means hit-call score of the fitted dose curve at least 0.9, where 1 is the maximum; inactive means score below 0.9.
Permitted responses: active, inactive

# example entries with known answers
CCNc1nc(Cl)nc(NC(C)(C)C)n1 = active
CCOP(=S)(Oc1ccc([N+](=O)[O-])cc1)c1ccccc1 (centres undefined) = inactive
CCOP(=S)(OCC)SCn1nnc2ccccc2c1=O = inactive
N#Cc1c(-c2ccc(Cl)cc2)[nH]c(C(F)(F)F)c1Br = inactive
c1ccc(OP(Oc2ccccc2)Oc2ccccc2)cc1 = inactive
Cc1ccc(N)cc1N = inactive
O=S1(=O)OCC2C(CO1)C1(Cl)C(Cl)=C(Cl)C2(Cl)C1(Cl)Cl (centres undefined) = inactive
CCCCOCCOP(=O)(OCCOCCCC)OCCOCCCC = inactive

Consider the additional compound presented here.
Each compound tested received a call. Report the one for CC(C)Nc1ccc(Nc2ccccc2)cc1 .
inactive

* * *

- Read-out: Human Leukocyte Antigen - DR isotype (HLADR), HLA-DRA (gene 3122)
- run-description: BSK_BE3C_HLADR: BioMAP Diversity Plus: BE3C Assay for Human Leukocyte Antigen - DR isotype (HLADR) Biomarker Activity (AID 2283032)
- condition-set: primary human bronchial epithelial cells; actives raise or lower the signal
Calls of active or inactive are those of the source. How the source made its calls: active means hit-call score of the fitted dose curve at least 0.9, where 1 is the maximum; inactive means score below 0.9.
Field 'call' accepts True for active, False for inactive

Example entries and their recorded answers appear below.
CCOP(=S)(OCC)SCn1nnc2ccccc2c1=O = False
CCNc1nc(Cl)nc(NC(C)(C)C)n1 = False
c1ccc2c(c1)sc1ccccc12 = False
O=c1ssc(Cl)c1Cl = True
CC(Cl)CN(C)C (configuration not stated) = False
CCCCN(CCCC)SN(C)C(=O)Oc1cccc2c1OC(C)(C)C2 = False

Consider the additional molecule presented here.
Record request — test call for COP(N)(=S)OC
False

* * *

- Read-out: Tissue Factor, F3 (gene 2152)
- run-description: BSK_CASM3C_TissueFactor: BioMAP Diversity Plus: CASM3C Assay for Tissue Factor Biomarker Activity (AID 2283052);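 also: cell surface tissue factor protein level read by ELISA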
- condition-set: primary human coronary artery smooth muscle cells; actives raise or lower the signal
The source made the active and inactive calls. The calls were made as follows: active = hit-call score of the fitted dose curve at least 0.9, where 1 is the maximum; inactive = score below 0.9.
Respond only with the outcome that fits, drawn from active, inactive

O=C(O)C(Cl)Cl = inactive
CC(C)(C)c1ccc(O)cc1 = inactive
CCNc1nc(Cl)nc(NC(C)(C)C)n1 = inactive
O=S1(=O)OCC2C(CO1)C1(Cl)C(Cl)=C(Cl)C2(Cl)C1(Cl)Cl (stereo not given) = active
CCCCN(CCCC)SN(C)C(=O)Oc1cccc2c1OC(C)(C)C2 = inactive
CCOP(=S)(NC(C)C)Oc1ccccc1C(=O)OC(C)C (stereo not given) = inactive
ClC(Cl)c1ccccc1 = inactive
CCCCC(CC)COP(=O)(Oc1ccccc1)Oc1ccccc1 (stereo not given) = inactive
NC(=O)C(F)(F)C(F)(F)F = inactive
O=c1ssc(Cl)c1Cl = active

Test call, this compound: CCN(CC)c1ccccc1
inactive

Hi team, can someone confirm the assay call for O=C(O)C(F)(F)C(F)(F)C(=O)O ?
inactive

Hi, sorry to bother you, what did the test record for CCCCCCCc1ccc(O)cc1 ?
inactive

* * *

- run-description: CCTE_Shafer_MEA_dev_bursting_electrodes_number: CCTE's Neural Network Formation Assay for Number of Bursting Electrodes, Shafer Lab (AID 2284043);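 as to AC50: potency is for loss of bursting electrodes relative to DMSO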
- Method: CCTE_Shafer_MEA_dev assay is conducted using Axion Biosystems 48 well microelectrode array (MEA) plates and Maestro recording system. Each well of the MEA plate contains a grid of 16 microelectrodes embedded in the culture surface. Electrically active cells, such as neurons, can be cultured over the electrodes, and electrical activity in these cells can be recorded extracellularly. […]
Records with an inconclusive call do not appear. Activity calls are given as the source filed them. Rule for the calls: active = hit-call score of the fitted dose curve at least 0.9, where 1 is the maximum; inconclusive = response in the unintended direction; inactive = score below 0.9.
endpoint: AC50

C=CC(=O)OCC(F)(F)C(F)F = 4.87 µM (active)
OCC(F)(F)OC(F)(F)C(F)(F)OC(F)(F)C(F)(F)OC(F)(F)CO = inactive
O=P1(N(CCCl)CCCl)NCCCO1 (stereo not drawn) = inactive

* * *

- run-description: BSK_3C_TissueFactor: BioMAP Diversity Plus: 3C Assay for Tissue Factor Biomarker Activity (AID 2282997)
- condition-set: BioMAP 3C HUVEC, tissue factor biomarker readout; actives raise or lower the signal
Calls of active or inactive are those of the source. Rule for the calls: active = hit-call score of the fitted dose curve at least 0.9, where 1 is the maximum; inactive = score below 0.9.
Assign a class; possible classes are class 1 for active, class 0 for inactive

Call for entry CCOP(=S)(OCC)SCn1nnc2ccccc2c1=O :
class 1

Could you please tell me the result logged for Cc1c([N+](=O)[O-])cc2c(c1[N+](=O)[O-])C(C)(C)CC2(C)C in this assay?
class 1

Write down the call the test reported for this molecule. Item: O=S(=O)(F)C(F)(F)C(F)(F)C(F)(F)C(F)(F)C(F)(F)C(F)(F)C(F)(F)C(F)(F)F
class 0

Could you check what this test reported for CN(C)C(=O)Cl ?
class 0

Recorded test call requested for O=C(O)C(F)(F)OC(F)(F)C(F)(F)OC(F)(F)C(=O)O
class 0

Test call, this molecule: CCOP(=S)(NC(C)C)Oc1ccccc1C(=O)OC(C)C (stereo unspecified)
class 0

* * *

- run-description: ATG_E_Box_CIS: Attagene CIS-FACTORIAL HepG2 Assay for human Enhancer Box (E-box) (AID 2282936)
- condition-set: HepG2 E-box cis-reporter transcription, actives raise or lower the signal
Active and inactive are the calls of the source. Rule for the calls: active = hit-call score of the fitted dose curve at least 0.9, where 1 is the maximum; inactive = score below 0.9.
Return exactly one item of active, inactive

O=C(O)C(F)(F)OC(F)(F)C(F)(F)OC(F)(F)C(=O)O = inactive

Query: recorded result category for CCOS(=O)(=O)OCC in this test
inactive

# outcome recorded in this test, key = O=c1[nH]c2ccccc2c(=O)o1
inactive

I would be grateful if you could indicate the recorded call for CSC(C)(C)C=NO .
inactive

* * *

- Read-out: Cytochrome P450 7A1 (Homo sapiens)
- run-description: LTEA_HepaRG_CYP7A1: Life Technologies and Expression Analysis (LTEA) Assay for Cytochrome P450 7A1 (CYP7A1) using HepaRG (AID 2283496)
- condition-set: mRNA level, 48 h; actives raise or lower the signal
Calls of active or inactive are those of the source. How the source made its calls: active means hit-call score of the fitted dose curve at least 0.9, where 1 is the maximum; inactive means score below 0.9.
endpoint: outcome

CCNc1nc(Cl)nc(NC(C)(C)C)n1 = inactive
CCCCCCCc1ccc(O)cc1 = inactive
OCC1CO1 (stereo not drawn) = inactive

* * *

- run-description: ATG_M_32_CIS: Attagene CIS-FACTORIAL HepG2 Assay for M32 Transcription Factor (Internal Marker) (AID 2282949);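 also: background control marker of the multiplexed CIS panel rather than a real target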
- condition-set: HepG2 Attagene cis-factorial M32 reporter, mRNA; actives raise or lower the signal
- Procedure: ATG_CIS is a cell-based, multiplexed-readout assay that uses HepG2, a human liver cell line, with measurements taken at 24 hours after chemical dosing in a 24-well plate.ATG_M_32_CIS is one of 52 assay component(s) measured or calculated from the ATG_CIS assay. […] This assay endpoint, ATG_M_32_CIS, was analyzed with bidirectional fitting relative to DMSO as the negative control and baseline of activity. […]
The source made the active and inactive calls. How the source made its calls: active means hit-call score of the fitted dose curve at least 0.9, where 1 is the maximum; inactive means score below 0.9.
Log the outcome using a class from 1 for active, -1 for inactive

Examples with answers:
c1ccc2c(c1)sc1ccccc12 = -1
O=c1[nH]c2ccccc2c(=O)o1 = -1
O=[N+]([O-])c1cc(Cl)ccc1Cl = -1

Recorded test call requested for CC(C)(C)OOC(C)(C)C
-1

Short answer needed: outcome of this test for O=C(O)C(F)(OC(F)(F)C(F)(F)C(F)(F)F)C(F)(F)F (stereo not given) ?
-1

Recorded test outcome, item Oc1ccccc1Br
-1

* * *

- run-description: BSK_hDFCGF_SRB: Viability Assessment in the BioMAP Diversity Plus: hDFCGF Assay (AID 2283061);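 also: cells exposed to compound for 24 h before the read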
- condition-set: primary human foreskin fibroblasts
The source made the active and inactive calls. How the source made its calls: active means hit-call score of the fitted dose curve at least 0.9, where 1 is the maximum; inactive means score below 0.9.
Assign a class; possible classes are 1 (yes) = active, 0 (no) = inactive

Solved entries (count: 4):
CCOC(=O)c1ccccc1C(=O)OCC = 0 (no)
CCCCN(CCCC)SN(C)C(=O)Oc1cccc2c1OC(C)(C)C2 = 1 (yes)
ClC(Cl)(Cl)c1ccccc1 = 0 (no)
O=[N+]([O-])c1ccc(Cl)c(Cl)c1 = 0 (no)

Next, consider the following compound.
Can you look up the reported call for CCOP(=S)(S)OCC for me?
0 (no)
